biological target: UniProt:Q72547; assay: HIV-1 reverse transcriptase inhibitory activity against Asn103 mutant using (poly)rC600*(oligo)dGT as template primer.
IC50 under 80 nM gets label 1, anything at or over 80 nM gets label 0.

> print(dat)
                                    molecule  assigned.label
 1  CC(=O)c1ccc(F)c(C2CC2NC(=O)Nc2ccc(C#N)cn2)c1O (stereo unspecified)         label 0
 2  CCOc1ccc(F)c(C2CC2NC(=O)Nc2ccc(C#N)cn2)c1Cl (stereo unspecified)         label 0
 3  CCC(=O)c1ccc(F)c(C2CC2NC(=O)Nc2ccc(C#N)cn2)c1O (stereo unspecified)         label 0
 4  CCOc1ccc(Cl)c(C2CC2NC(=O)Nc2ccc(Cl)cn2)c1F (stereo unspecified)         label 0
 5  CC(=O)c1ccc(F)c(C2CC2NC(=O)Nc2ccc(Br)cn2)c1O (stereo unspecified)         label 1
 6   CCOc1ccc(F)c(CCNC(=O)Nc2ccc(Br)cn2)c1Cl         label 0
 7  COc1c(C(C)=O)ccc(F)c1CCNC(=O)Nc1ccc(Cl)cn1         label 0
 8  CCOc1ccc(Cl)c(C2CC2NC(=O)Nc2ccc(C#N)cn2)c1F (stereo unspecified)         label 0
 9  CCC(=O)c1ccc(F)c(C2CC2NC(=O)Nc2ccc(Cl)cn2)c1O (stereo in doubt; 13)         label 1
10  CCOc1ccc(Cl)c(C2CC2NC(=O)Nc2cc(Cl)cnn2)c1F (stereo unspecified)         label 0
11  O=C(Nc1ccc(Cl)cn1)NC1CC1c1c(F)ccc(O)c1Cl (stereo unspecified)         label 0
12  CCC(=O)c1ccc(F)c(C2CC2NC(=O)Nc2ccc(Br)cn2)c1O (stereo in doubt; 18)         label 1
13    COc1ccc(OC)c(CCNC(=O)Nc2ccc(Cl)cn2)c1F         label 0
14  CCOc1ccc(F)c(C2CC2NC(=O)Nc2cc(Cl)cnn2)c1Cl (stereo unspecified)         label 0
15  CCC(=O)c1ccc(F)c(C2CC2NC(=O)Nc2ccc(Br)cn2)c1O (stereo in doubt; 17)         label 0
16  COc1ccc2c(c1)N(C(=O)OC(C)C)C(CSC)C(S)=N2 (stereo unspecified)         label 1
17  CCC(=O)c1ccc(F)c(C2CC2NC(=O)Nc2ccc(Cl)cn2)c1O (stereo in doubt; 20)         label 1
18  CN(C)c1ccc(F)c(CCNC(=O)Nc2ccc(Br)cn2)c1F         label 0
19  COc1ccc(C(C)=O)c(F)c1CCNC(=O)Nc1ccc(Cl)cn1         label 0
20  CCOc1ccc(F)c(C2CC2NC(=O)Nc2ccc(Cl)cn2)c1F (stereo unspecified)         label 0
